target.under.test: 5-hydroxytryptamine receptor 1E (Homo sapiens)
Sequence (P28566 whole entry): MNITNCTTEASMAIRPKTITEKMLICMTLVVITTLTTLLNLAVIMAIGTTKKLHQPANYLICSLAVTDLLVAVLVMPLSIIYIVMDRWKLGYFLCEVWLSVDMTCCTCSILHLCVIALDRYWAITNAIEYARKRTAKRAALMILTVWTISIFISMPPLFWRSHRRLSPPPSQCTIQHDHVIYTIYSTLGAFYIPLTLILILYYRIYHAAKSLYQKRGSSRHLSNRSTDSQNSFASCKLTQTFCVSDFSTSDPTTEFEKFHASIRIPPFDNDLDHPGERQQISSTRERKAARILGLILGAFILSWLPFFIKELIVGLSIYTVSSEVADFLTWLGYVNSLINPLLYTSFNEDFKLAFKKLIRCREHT
pKi: −log10 of the molar value.
measurement.type: pKi

compound: CC(CF)NCC(O)COc1cccc2[nH]c3ccccc3c12 [Fluorocarazolol,(S)]
observed.measurement: < 5.00

---

target.under.test: Glutamate receptor ionotropic, NMDA 1 (Rattus norvegicus, UniProt P35439)
measurement.type: Ki

compound: CC(CF)NCC(O)COc1cccc2[nH]c3ccccc3c12 [Fluorocarazolol,(S)]
observed.measurement: > 10 µM

---

target.under.test: Sodium-dependent dopamine transporter (Bos taurus, UniProt P27922)
Sequence (P27922 whole entry): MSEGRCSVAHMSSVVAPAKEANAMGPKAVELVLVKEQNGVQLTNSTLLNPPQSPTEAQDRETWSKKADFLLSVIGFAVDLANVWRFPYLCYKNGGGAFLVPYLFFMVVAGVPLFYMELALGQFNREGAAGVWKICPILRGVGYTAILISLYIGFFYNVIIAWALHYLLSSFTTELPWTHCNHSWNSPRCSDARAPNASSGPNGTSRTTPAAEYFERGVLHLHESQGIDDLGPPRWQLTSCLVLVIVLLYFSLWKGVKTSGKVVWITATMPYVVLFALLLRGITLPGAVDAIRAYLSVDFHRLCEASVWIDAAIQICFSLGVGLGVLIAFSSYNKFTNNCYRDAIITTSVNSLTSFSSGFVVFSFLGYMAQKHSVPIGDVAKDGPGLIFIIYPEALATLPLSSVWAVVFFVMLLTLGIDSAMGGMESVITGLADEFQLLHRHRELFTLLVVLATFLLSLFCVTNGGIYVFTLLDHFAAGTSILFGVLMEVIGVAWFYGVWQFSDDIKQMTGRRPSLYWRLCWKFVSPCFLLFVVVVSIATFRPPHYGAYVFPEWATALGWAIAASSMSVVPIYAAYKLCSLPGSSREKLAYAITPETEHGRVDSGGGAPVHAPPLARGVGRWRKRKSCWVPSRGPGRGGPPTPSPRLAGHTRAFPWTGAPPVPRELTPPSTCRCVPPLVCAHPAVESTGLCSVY
measurement.type: Ki

molecule: CC(CF)NCC(O)COc1cccc2[nH]c3ccccc3c12 [Fluorocarazolol,(S)]
measurement.type: Ki
observed.measurement: > 10 µM
